# System: L6
# ASSAY NAME: Cytotoxicity against rat L6 cells
# Assay type: cell-based
VALUE TYPE: IC50 (µg/mL)
Give bare numbers, in µg/mL.

CHEMICAL SMILES	UNIT STRING	IC50
COc1cc([C@@H]2c3cc4c(cc3[C@H](O)[C@H]3COC(=O)[C@H]23)OCO4)cc(OC)c1OC	µg/mL	0.005

Please look up its IC50: CC1(C)C(=O)C=C[C@]2(C)[C@H]3CC[C@@]4(C)[C@H](c5ccoc5)OC(=O)[C@H]5O[C@]54[C@]3(C)[C@H](O)C[C@@H]12
13.3

The values you see were collected from ChEMBL document CHEMBL1138405.
